# System: NCI-H460 (Non-small cell lung cancer)
# test: NCI-60 single-dose anticancer screen
# Assay type: cell-based, human
# experimental_setup: 10 µM single dose
Measured cell growth promotion, listed per entry.
Give just the number in %; leave the unit off.

Reference set, count: 5
> print(dat)
                                   molecule      measurement.label  measured.result
1  COc1cc(C2CC(c3ccc(N4CCNCC4)cc3)=NN2)ccc1F (stereo not drawn)  cell growth promotion            95.16
2  Fc1cnccc1C1CC(c2ccc(N3CCNCC3)cc2)=NN1 (stereo not drawn)  cell growth promotion            94.92
3  N#Cc1ccccc1C1CC(c2ccc(N3CCNCC3)cc2)=NN1 (stereo not drawn)  cell growth promotion           101.50
4   COc1cc(C=CC(=O)c2ccc(N3CCNCC3)cc2)ccc1F  cell growth promotion            97.07
5     O=C(C=Cc1cccc(F)c1)c1ccc(N2CCNCC2)cc1  cell growth promotion            74.45

Looking for the measured cell growth promotion of `O=C(C=Cc1ccncc1F)c1ccc(N2CCNCC2)cc1` , can you help? 106.01

---

Reported cell growth promotion values for the following compounds.
# Tested on: KM12 (Colon cancer)
# test: NCI-60 single-dose anticancer screen
# Type: cell-based, human
# experimental_setup: 10 µM single dose
Give just the numeric value; % need not be written.

> print(dat)
                                   compound  measured.result
1  COc1cc(C2CC(c3ccc(N4CCNCC4)cc3)=NN2)ccc1F (stereo not drawn)            93.81
2  N#Cc1ccccc1C1CC(c2ccc(N3CCNCC3)cc2)=NN1 (stereo not drawn)            97.48

Now look at this entry.
Record request: cell growth promotion value, item `O=C(C=Cc1ccncc1F)c1ccc(N2CCNCC2)cc1` 105.34

---

# Tested on: HCT-116 (Colon cancer)
# test: NCI-60 single-dose anticancer screen
# Assay type: cell-based, human
# experimental_setup: 10 µM single dose
# Protocol: Six compounds were selected by the NCI, according to NCI’s DTP selection guidelines, for evaluation of their anticancer activity at a single-dose of 10 µM against 60 human tumours cell lines. In vitro cytotoxicity was performed in NCI according to reported method.
measurement_label: cell growth promotion (%)
Form entry: value (%) — number only.

# get_value(readout= cell growth promotion, system= HCT-116 (Colon cancer)) for `COc1cc(C=CC(=O)c2ccc(N3CCNCC3)cc2)ccc1F` 27.43

Query cell growth promotion on HCT-116 (Colon cancer) for `O=C(C=Cc1ccncc1F)c1ccc(N2CCNCC2)cc1` 73.87

Recall the recorded cell growth promotion for N#Cc1ccccc1C1CC(c2ccc(N3CCNCC3)cc2)=NN1 (stereo not drawn) with HCT-116 (Colon cancer) and state it. 85.83

Look up cell growth promotion with HCT-116 (Colon cancer) for this compound: Fc1cnccc1C1CC(c2ccc(N3CCNCC3)cc2)=NN1 (stereo not drawn) 73.82

Enter reported cell growth promotion observed with HCT-116 (Colon cancer) for COc1cc(C2CC(c3ccc(N4CCNCC4)cc3)=NN2)ccc1F (stereo not drawn) 61.10

Value wanted: cell growth promotion (HCT-116 (Colon cancer)) of entry `O=C(C=Cc1cccc(F)c1)c1ccc(N2CCNCC2)cc1` 42.08

---

# Tested on: HT29 (Colon cancer)
# test: NCI-60 single-dose anticancer screen
# Type: cell-based, human
# experimental_setup: Homo sapiens, HT-29, 10 µM single dose, read-out: cell growth inhibition
Overview of reported inhibition at 10 µM across a group of molecules:
API: value field is a number in %; no unit string.

Please review the entries below; each comes with its answer.
> print(dat)
                                   molecule  experimental.target    measurement.label  unit.name  measured.result
1  Fc1cnccc1C1CC(c2ccc(N3CCNCC3)cc2)=NN1 (centres unmarked)  HT29 (Colon cancer)  inhibition at 10 µM          %             39.8
2       O=C(C=Cc1ccncc1F)c1ccc(N2CCNCC2)cc1  HT29 (Colon cancer)  inhibition at 10 µM          %             13.8
3  N#Cc1ccccc1C1CC(c2ccc(N3CCNCC3)cc2)=NN1 (centres unmarked)  HT29 (Colon cancer)  inhibition at 10 µM          %             12.2
4     O=C(C=Cc1cccc(F)c1)c1ccc(N2CCNCC2)cc1  HT29 (Colon cancer)  inhibition at 10 µM          %             69.6

Now look at this entry.
Could you share which inhibition at 10 µM value was measured for COc1cc(C2CC(c3ccc(N4CCNCC4)cc3)=NN2)ccc1F (centres unmarked) ? 79.7

---

# System: SR (Leukaemia)
# test: NCI-60 single-dose anticancer screen
# Format: cell-based, human
# experimental_setup: Homo sapiens, 10 µM single dose, read-out: cell growth inhibition
# key: entry, value: inhibition at 10 µM
A number alone suffices; assume %.

Here is how some compounds turned out for inhibition at 10 µM.
> print(dat)
                                  compound  unit.name  measured.result
1      O=C(C=Cc1ccncc1F)c1ccc(N2CCNCC2)cc1          %             7.01
2    O=C(C=Cc1cccc(F)c1)c1ccc(N2CCNCC2)cc1          %             44.3
3  COc1cc(C=CC(=O)c2ccc(N3CCNCC3)cc2)ccc1F          %             53.8

Kindly consider the entry below.
# input compound: N#Cc1ccccc1C1CC(c2ccc(N3CCNCC3)cc2)=NN1 (stereo not shown) ; wanted: its inhibition at 10 µM 5.57

---

# Test system: MCF7 (Breast cancer)
# test: NCI-60 single-dose anticancer screen
# Format: cell-based, human
# experimental_setup: 10 µM single dose
measurement_label: cell growth promotion
Put down the number, then write its unit next to it.

Example compounds with recorded cell growth promotion:
> print(dat)
                                   compound      measurement.label  measured.result
1       O=C(C=Cc1ccncc1F)c1ccc(N2CCNCC2)cc1  cell growth promotion           99.38%
2  COc1cc(C2CC(c3ccc(N4CCNCC4)cc3)=NN2)ccc1F (stereo not drawn)  cell growth promotion           68.65%
3     O=C(C=Cc1cccc(F)c1)c1ccc(N2CCNCC2)cc1  cell growth promotion           51.72%
4   COc1cc(C=CC(=O)c2ccc(N3CCNCC3)cc2)ccc1F  cell growth promotion           34.68%
5  N#Cc1ccccc1C1CC(c2ccc(N3CCNCC3)cc2)=NN1 (stereo not drawn)  cell growth promotion           93.05%

Okay, next one:
Entry under review: Fc1cnccc1C1CC(c2ccc(N3CCNCC3)cc2)=NN1 (stereo not drawn) . Reported cell growth promotion? 73.03%

---

# Test system: COLO 205 (Colon cancer)
# test: NCI-60 single-dose anticancer screen
# Format: cell-based, human
# experimental_setup: 10 µM single dose
measurement_label: cell growth promotion (%)
Give the value in % but do not write % after it.

> print(dat)
                                   molecule  measured.result
1  N#Cc1ccccc1C1CC(c2ccc(N3CCNCC3)cc2)=NN1 (stereo not drawn)           113.04
2   COc1cc(C=CC(=O)c2ccc(N3CCNCC3)cc2)ccc1F            83.00
3       O=C(C=Cc1ccncc1F)c1ccc(N2CCNCC2)cc1           111.89
4  Fc1cnccc1C1CC(c2ccc(N3CCNCC3)cc2)=NN1 (stereo not drawn)            95.69
5  COc1cc(C2CC(c3ccc(N4CCNCC4)cc3)=NN2)ccc1F (stereo not drawn)            93.87

Moving on to another molecule below.
What measured cell growth promotion goes with `O=C(C=Cc1cccc(F)c1)c1ccc(N2CCNCC2)cc1` ? 96.91

---

Recorded melting point values for a group of molecules are listed next.
Please respond with the number in °C and leave the unit unwritten.

> print(dat)
                              molecule  measured.result
1  O=C(C=Cc1ccncc1F)c1ccc(N2CCNCC2)cc1              225

Please report the recorded melting point for `O=C(C=Cc1ccccc1F)c1ccc(N2CCNCC2)cc1` . 176

Which measured melting point value corresponds to N#Cc1ccccc1C1CC(c2ccc(N3CCNCC3)cc2)=NN1 (stereo not drawn) ? 165

Param item = Fc1cnccc1C1CC(c2ccc(N3CCNCC3)cc2)=NN1 (stereo not drawn) ; retrieve measured melting point. 135

What measured melting point goes with COc1cc(C2CC(c3ccc(N4CCNCC4)cc3)=NN2)ccc1F (stereo not drawn) ? 195

# query: melting point of entry `N#Cc1ccc(C=CC(=O)c2ccc(N3CCNCC3)cc2)cc1` 170
